# Species: Rattus norvegicus
# experimental_protocol: Blockade of apamin-sensitive AHP in Wistar rat dopaminergic neurons by electrophysiology assay
# Assay type: functional, organism-based
# assay_context: Neuron
pIC50: −log10 of the molar value.
property_measured: pIC50

| molecule | assay_result |
| --- | --- |
| COc1ccc(CC2c3c(cc(OC)c(OC)c3OC)CC[N+]2(C)C)cc1OC.[I-] (configuration not stated) | 5.05 |
| COc1ccc(C[C@H]2c3cc(OC)c(OC)cc3CC[N+]2(C)C)cc1OC.[I-] [LAUDANOSINE METHIODIDE] | 4.82 |

----------
# tgt: Small conductance calcium-activated potassium channel (Rattus norvegicus, UniProt P70604+P70606+P70605)
# experimental_protocol: Displacement of [125I]apamin from Wistar rat cortical apamin-sensitive site
# Type: protein assay

| compound | Ki (nM) |
| --- | --- |
| COc1cc2c(cc1OC)C(Cc1ccc3ccccc3c1)[N+](C)(C)CC2.[I-] (stereo unspecified) | 910 |
| COc1ccc(CC2c3c(cc(OC)c(OC)c3OC)CC[N+]2(C)C)cc1OC.[I-] (stereo unspecified) | 730 |
| COc1ccc2c(c1OC)C(=O)O[C@@H]2[C@H]1c2c(cc3c(c2OC)OCO3)CC[N+]1(C)C.[I-] | 3600 |
| COc1ccc(C[C@H]2c3cc(OC)c(OC)cc3CC[N+]2(C)C)cc1OC.[I-] [LAUDANOSINE METHIODIDE] | 1300 |
| COc1cc2c(c(OC)c1OC)C(Cc1ccc3ccccc3c1)[N+](C)(C)CC2.[I-] (stereo unspecified) | 2200 |
| COc1ccc(CCC2c3cc(OC)c(OC)cc3CC[N+]2(C)C)cc1OC.[I-] (stereo unspecified) | 5400 |

----------
# tgt: Small conductance calcium-activated potassium channel (Rattus norvegicus) (UniProt P70604+P70606+P70605)
# experimental_protocol: Displacement of [125I]apamin from Wistar rat cortical apamin-sensitive site at 10 uM
# Type: protein assay
property_measured: Activity (%)

| compound | assay_result |
| --- | --- |
| COc1cc2c(c(OC)c1)C(Cc1ccc3ccccc3c1)[N+](C)(C)CC2 (stereo unspecified) | 2 |
| COc1cc2c(cc1OC)C(CC(C)C)[N+](C)(C)CC2 (stereo unspecified) | 0 |
| C[N+]1(C)CCc2ccccc2C1Cc1ccc2ccccc2c1 (stereo unspecified) | 1 |
| COc1ccc2c(c1OC)C(Cc1ccc3ccccc3c1)N(C)CC2 (stereo unspecified) | 0 |
| COc1ccc(CC2c3c(cc(OC)c(OC)c3OC)CC[N+]2(C)C)cc1OC.[I-] (stereo unspecified) | 72 |
| CCCC1c2cc(OC)c(OC)cc2CCN1C (stereo unspecified) | 0 |
| COc1cc2c(cc1OC)C(CC(C)C)N(C)CC2 (stereo unspecified) | 0 |
| COc1ccc(CCC2c3cc(OC)c(OC)cc3CC[N+]2(C)C)cc1OC.[I-] (stereo unspecified) | 32 |
| COc1cc2c(c(OC)c1OC)C(Cc1ccc3ccccc3c1)[N+](C)(C)CC2.[I-] (stereo unspecified) | 53 |
| COc1ccc(CC2c3c(cc(OC)c(OC)c3OC)CCN2C)cc1OC (stereo unspecified) | 27 |
| CN1CCc2ccccc2C1Cc1ccc2ccccc2c1 (stereo unspecified) | 0 |

----------
# tgt: Small conductance calcium-activated potassium channel (Rattus norvegicus) (UniProt P70604+P70606+P70605)
# experimental_protocol: Displacement of [125I]apamin from Wistar rat cortical apamin-sensitive site at 10 uM
# Assay type: protein assay
Rule: Activity below 20% gives 1. Equal to or above 20% gives -1.

| compound | label |
| --- | --- |
| COc1cc2c(cc1OC)C(Cc1ccc3ccccc3c1)[N+](C)(C)CC2.[I-] (stereo unspecified) | -1 |
| COc1ccc2c(c1OC)C(Cc1ccc3ccccc3c1)[N+](C)(C)CC2 (stereo unspecified) | 1 |
| COc1ccc(CC2c3c(ccc(OC)c3OC)CCN2C)cc1OC (stereo unspecified) | 1 |
| COc1ccc(CC2c3c(ccc(OC)c3OC)CC[N+]2(C)C)cc1OC (stereo unspecified) | -1 |
| COc1cc2c(c(OC)c1OC)C(Cc1ccc3ccccc3c1)N(C)CC2 (stereo unspecified) | 1 |
| COc1cc2c(c(OC)c1)C(Cc1ccc3ccccc3c1)N(C)CC2 (stereo unspecified) | 1 |
| COc1ccc(CCC2c3cc(OC)c(OC)cc3CCN2C)cc1OC (stereo unspecified) | 1 |
| COc1cc2c(c(OC)c1)C(Cc1ccc(OC)c(OC)c1)N(C)CC2 (stereo unspecified) | 1 |
| CCCC1c2cc(OC)c(OC)cc2CC[N+]1(C)C (stereo unspecified) | 1 |
| COc1cc2c(cc1OC)C(Cc1ccc3ccccc3c1)N(C)CC2 (stereo unspecified) | 1 |
